Recorded values, source ChEMBL document CHEMBL6153077.

target: Vitamin D3 receptor (Homo sapiens); assay: Binding affinity to full-length VDR (unknown origin) at 1 uM by fluorescence polarization assay relative to control; conditions: filed as agonist

{"COMPOUND": "OCc1ccc(/C=C/c2ccc(OCCCC(F)(F)F)cc2)cc1CO", "UNIT SYMBOL": "%", "Activity": 51}
{"COMPOUND": "CCC(O)(CC)COc1ccc(/C=C/C2=C[C@@H](O)[C@@H](O)[C@H](O)C2)c2c1CCCC2", "UNIT SYMBOL": "%", "Activity": 61}
{"COMPOUND": "CC(C)(C)C(O)COc1ccc(/C=C/C2=C[C@@H](O)[C@@H](O)[C@H](O)C2)c2c1CCCC2 (some centres undefined)", "UNIT SYMBOL": "%", "Activity": 50}
{"COMPOUND": "CCC(O)(CC)CCCn1ccc2c(/C=C/C3=C[C@@H](O)[C@@H](O)[C@H](O)C3)cccc21", "UNIT SYMBOL": "%", "Activity": 64}
